biological target: fusion protein PRT
Sequence (chain, as listed by the source): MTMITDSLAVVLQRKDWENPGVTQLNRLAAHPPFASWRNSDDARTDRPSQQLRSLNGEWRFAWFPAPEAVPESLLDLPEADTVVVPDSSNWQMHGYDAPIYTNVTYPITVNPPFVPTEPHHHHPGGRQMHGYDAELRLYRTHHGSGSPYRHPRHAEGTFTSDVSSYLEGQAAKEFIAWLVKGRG

Protein	relative cleavage efficiency [%]
OmpT protease variant OmpT D97H (protein) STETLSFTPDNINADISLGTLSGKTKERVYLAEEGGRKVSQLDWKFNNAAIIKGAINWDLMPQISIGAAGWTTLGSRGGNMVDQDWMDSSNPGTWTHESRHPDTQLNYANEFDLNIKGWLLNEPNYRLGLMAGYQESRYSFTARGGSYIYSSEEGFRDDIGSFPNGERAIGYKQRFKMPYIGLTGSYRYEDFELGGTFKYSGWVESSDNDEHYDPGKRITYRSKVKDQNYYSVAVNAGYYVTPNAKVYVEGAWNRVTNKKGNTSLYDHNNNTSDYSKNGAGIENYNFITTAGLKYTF	3
